Source listed as patent US7189680B2.

- test: logP determination by HPLC (EEC directive 79/831 Annex V. A8)
- Type: physicochemical
- applied_conditions: HPLC gradient method, acetonitrile/0.1% aqueous phosphoric acid; Table 1
property_label: logP*

> print(dat)
                                   compound  readout.value
1  C=CCONc1c(-c2ccccc2F)c(Cl)nc2ncnn12 [Example 64]           2.27
2  NN(CC1CC1)c1c(-c2c(F)cccc2Cl)c(Cl)nc2ncnn12 [Example 162]           2.63
3  NN(CC1CC1)c1c(-c2c(F)cc(F)cc2F)c(Cl)nc2ncnn12 [Example 159]           2.66
4  CC(C)N(N)c1c(-c2c(F)cc(F)cc2F)c(Cl)nc2ncnn12 [Example 133]           2.62
5  CN(O)c1c(-c2c(F)cccc2F)c(Cl)nc2ncnn12 [Example 124]           2.19
